PROCEDURE_DETAILS: Lacosamide plasma pharmacokinetics, ER infusion vs IP bolus in rats (Example 15)
Assay type: in vivo
SETUP_CONDITIONS: rat, plasma, ip, 122 mg/kg; Group 2 (ER), 18 hour infusion; read-out: AUC0-18

>  <COMPOUND>
COC[C@@H](NC(C)=O)C(=O)NCc1ccccc1 [lacosamide]

>  <UNIT_LABEL>
µg·h/mL

>  <AUC(0-t)>
217

$$$$

====

PROCEDURE_DETAILS: PK phase, single IV or PO dose of lacosamide in mice (Example 12)
Assay type: in vivo, male CD-1 mice
SETUP_CONDITIONS: male, CD-1, mouse, plasma; single 30 mg/kg oral dose

>  <COMPOUND>
COC[C@@H](NC(C)=O)C(=O)NCc1ccccc1 [lacosamide]

>  <Cmax>
~15000 ng/mL

$$$$

====

PROCEDURE_DETAILS: Lacosamide plasma pharmacokinetics, ER infusion vs IP bolus in rats (Example 15)
Type: in vivo
SETUP_CONDITIONS: rat, plasma, intraperitoneal, 19 mg/kg; group 4 (IR profile)

>  <MOLECULE>
COC[C@@H](NC(C)=O)C(=O)NCc1ccccc1 [lacosamide]

>  <concentration at 1 h>
~19000 ng/mL

$$$$

====

PROCEDURE_DETAILS: Lacosamide plasma pharmacokinetics, ER infusion vs IP bolus in rats (Example 15)
Assay type: in vivo
SETUP_CONDITIONS: rat, plasma, ip, 19 mg/kg; Group 4 (IR); read-out: AUC0-18

>  <COMPOUND>
COC[C@@H](NC(C)=O)C(=O)NCc1ccccc1 [lacosamide]

>  <UNIT_LABEL>
ng·h/mL

>  <AUC(0-t)>
18000

$$$$

====

PROCEDURE_DETAILS: PK phase, single IV or PO dose of lacosamide in mice (Example 12)
Assay type: in vivo, male CD-1 mice
SETUP_CONDITIONS: male, CD-1, mouse, plasma; IV route
EXPERIMENTAL_READOUT: Tmax

>  <COMPOUND>
COC[C@@H](NC(C)=O)C(=O)NCc1ccccc1 [lacosamide]

>  <EXPERIMENTAL_READOUT>
Tmax

>  <READOUT_VALUE>
< 5 min

$$$$

====

PROCEDURE_DETAILS: PK phase, single IV or PO dose of lacosamide in mice (Example 12)
Assay type: in vivo, male CD-1 mice
SETUP_CONDITIONS: male, CD-1, mouse, plasma; single 10 mg/kg IV dose

>  <MOLECULE>
COC[C@@H](NC(C)=O)C(=O)NCc1ccccc1 [lacosamide]

>  <Cmax>
~15000 ng/mL

$$$$

====

PROCEDURE_DETAILS: Lacosamide plasma pharmacokinetics, ER infusion vs IP bolus in rats (Example 15)
Format: in vivo
SETUP_CONDITIONS: rat, plasma, ip, 122 mg/kg; ER infusion protocol (Group 2), PK satellite rats; read-out: median Tmax
EXPERIMENTAL_READOUT: Tmax (h)

>  <COMPOUND>
COC[C@@H](NC(C)=O)C(=O)NCc1ccccc1 [lacosamide]

>  <READOUT_VALUE>
15

$$$$

====

PROCEDURE_DETAILS: PK phase, single IV or PO dose of lacosamide in mice (Example 12)
Type: in vivo, male CD-1 mice
SETUP_CONDITIONS: male, CD-1, mouse, plasma; single 30 mg/kg IV dose

>  <COMPOUND>
COC[C@@H](NC(C)=O)C(=O)NCc1ccccc1 [lacosamide]

>  <Cmax>
~40000 ng/mL

$$$$
